Measured Metric: Ki (nM)
// return numeric value only (unit: nM, not printed)

Q: Entry CN[C@@H](C)C(=O)c1ccc(C)cc1 [S-MEPH, S-mephedrone] , system 5-HT2B receptor (Homo sapiens, UniProt P41595): what Ki was measured?
Ans: 857

* * *

biological target: 5-HT2C receptor (Homo sapiens); experiment: competitive radioligand binding
Sequence (P28335 33-458): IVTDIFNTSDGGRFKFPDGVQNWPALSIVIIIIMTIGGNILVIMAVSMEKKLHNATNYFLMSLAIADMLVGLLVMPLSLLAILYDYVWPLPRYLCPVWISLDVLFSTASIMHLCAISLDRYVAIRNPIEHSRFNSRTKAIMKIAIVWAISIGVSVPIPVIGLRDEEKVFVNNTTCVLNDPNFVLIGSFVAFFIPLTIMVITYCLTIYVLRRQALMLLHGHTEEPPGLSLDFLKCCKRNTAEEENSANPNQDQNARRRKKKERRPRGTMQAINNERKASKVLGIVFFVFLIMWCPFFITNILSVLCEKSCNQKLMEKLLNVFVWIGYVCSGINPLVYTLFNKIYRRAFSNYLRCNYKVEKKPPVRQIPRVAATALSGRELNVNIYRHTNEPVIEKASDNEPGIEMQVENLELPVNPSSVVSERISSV
Measured Metric: Ki

Q: For the compound shown here, CN[C@@H](C)C(=O)c1ccc(C)cc1 [S-MEPH, S-mephedrone] , give the reported Ki.
Ans: 3.9 µM

* * *

biological target: sigma-1 receptor; experiment: competitive radioligand binding
Measured Metric: Ki (µM)
// return numeric value only (unit: µM, not printed)

Q: For the compound shown here, `CN[C@@H](C)C(=O)c1ccc(C)cc1` , give the reported Ki.
Ans: 1.5
